The reported measurements were obtained from PubChem BioAssay (NCI).

system: HOP-62 NSCLC; experiment: NCI-60 one-dose screen, 48 h (100 = growth as untreated, 0 = no growth, -100 = all killed); conditions: 10 µM unless noted
About 83,000 compounds went through this panel and 20% of them were active in at least one assay; those are over-represented in the sample as a whole. Active and inactive are the calls of the source. The calls were made as follows: active = growth percent below 10; inactive = the rest.
testReadout: growth

Answered cases to consult:
Cc1cc(C)c(-c2cc(O)c(-c3c(C)cc(C)cc3C)cc2O)c(C)c1 | 47.2% (inactive)
Cc1cc(-c2ccc(N=Nc3c(S(=O)(=O)O)cc4cc(S(=O)(=O)O)cc(N)c4c3O)c(C)c2)ccc1N=Nc1cc(S(=O)(=O)O)c2ccccc2c1O | 93.8% (inactive)

Next up:
-- ask Find the recorded growth belonging to `Nn1c(Nc2ccc(S(=O)(=O)Nc3ncccn3)cc2)nnc(/C=C/c2c(O)ccc3ccccc23)c1=O` and report it.
-- reply 81.8% (inactive)

====

This listing pairs molecules with measured growth.
test system: SNB-75 CNS; experiment: NCI-60 one-dose screen, 48 h (100 = growth as untreated, 0 = no growth, -100 = all killed); settings: 10 µM unless noted
Compounds without any hit were thinned out: in the full panel of roughly 83,000, 20% have a hit. The source made the active and inactive calls. The calls were made as follows: active = growth percent below 10; inactive = the rest.

C=C(C)[C@@H]1CC[C@]2(c3ncc(C)o3)CC[C@]3(C)[C@H](CC[C@@H]4[C@@](C)(CCC#N)[C@H](C(=C)C)CC[C@]43C)[C@@H]12 | -86.8% [100 µM] (active)
Cc1cc(C)c(S(=O)(=O)/N=c2/n(-c3ccccc3)nc3n2CCN3C2=NCCN2)c(C)c1 | 74.3% (inactive)
COC(=O)[C@H](CC(C)C)NC(=O)NC(=O)NC(=O)CI | 102% (inactive)
CCN=Cc1c(O)c(O)c(C(C)C)c2cc(C)c(-c3c(C)cc4c(C(C)C)c(O)c(O)c(C=NCC)c4c3O)c(O)c12 | 57.7% (inactive)

-- ask State its growth on SNB-75 CNS: CCOC(=O)c1nn(C2CCCCO2)c2ccc(NS(=O)(=O)c3ccc(C)cc3)cc12 (stereo unspecified)
-- reply 80.5% (inactive)

-- ask Same thing, different molecule: `Oc1ccc(N=Nc2nccs2)c(O)c1`
-- reply 92.7% (inactive)

====

Listed next: entries and their corresponding growth.
System: HCT-116 colon
Assay: NCI-60 one-dose screen, 48 h (100 = growth as untreated, 0 = no growth, -100 = all killed)
Conditions: 10 µM unless noted
Protocol: Growth inhibition of the HCT-116 human tumor cell line is measured as a screen for anti-cancer activity. Cells are grown in 96 well plates and exposed to the test compound for 48 hours. Compounds are tested at a single concentration, which is 10^-5 M for most compounds. The reported endpoint is percent growth (GI% or GIPRCNT), where numbers from 0 - 100% represent growth inhibition, and numbers from -100% - 0 represent cell death. For example, a value of 40 represents 60% growth inhibition. […]
About 83,000 compounds went through this panel and 20% of them were active in at least one assay; those are over-represented in the sample as a whole.
The figure you give is taken to be in %; do not add the unit.

COc1ccc(-c2cc(-c3ccc(Cl)cc3)nc(SCCCCCCC(=O)NO)n2)cc1 | 14.9
C[n+]1c(-c2ccccc2)c2cc(N)ccc2c2ccccc21 | 30.4
Cn1cc(-c2noc(-c3cn(C)c4ncc(Br)cc34)n2)c2cc(Cl)ccc21 | 35.2

Now, please, on to the next compound.
-- ask For `O=C(Nc1ccc(F)cc1)c1ccccc1` , what is its reported growth?
-- reply 103

====

System: MALME-3M melanoma
Assay: NCI-60 one-dose screen, 48 h
Conditions: 10 µM unless noted
Experimental: Cells are grown in 96 well plates and exposed to the test compound for 48 hours. Compounds are tested at a single concentration, which is 10^-5 M for most compounds. The reported endpoint is percent growth (GI% or GIPRCNT), where numbers from 0 - 100% represent growth inhibition, and numbers from -100% - 0 represent cell death. For example, a value of 40 represents 60% growth inhibition. A value of 0 means no net growth occurred over the course of the experiment. […]
Compounds without any hit were thinned out: in the full panel of roughly 83,000, 20% have a hit. Calls of active or inactive are those of the source. Rule for the calls: active = growth percent below 10; inactive = the rest.
Returns: one label drawn from active, inactive

Take a look at these entries with their results.
O=C(CSc1nccc(Nc2ccc(S(=O)(=O)Nc3ccccn3)cc2)n1)c1ccc(Cl)cc1 | inactive
NS(=O)(=O)c1ccc(CCN2C(=O)/C(=C\c3ccccc3)C=C2c2ccc(Cl)cc2)cc1 | inactive
CCOC(=O)C(C(C)=O)c1nc2sc3cc(Cl)c(Cl)cc3n2c(=O)c1C#N (configuration not stated) | inactive
CCOc1ccc2sc(NS(=O)(=O)c3ccc(N)cc3)nc2c1 | inactive

-- ask Test call for this compound, please: `O=C(Nc1cc(-c2cccnc2)nc(NCCCN2CCOCC2)n1)c1cc(Br)cc(C(F)(F)F)c1`
-- reply active

-- ask Please give the result for `Cn1c(=O)c(C#N)c(-c2ccco2)n2c(S(=O)(=O)Cc3ccccc3)nnc12` too.
-- reply inactive

-- ask Can you handle `CC(C)=CC/C=C(/C)[C@H]1CC[C@]2(C)[C@@H]1CC[C@@H]1[C@@]3(C)CC/C(=N/O)C(C)(C)[C@@H]3CC[C@]12C` next?
-- reply inactive

====

test system: SNB-19 CNS; assay: NCI-60 one-dose screen, 48 h (100 = growth as untreated, 0 = no growth, -100 = all killed); settings: 10 µM unless noted
About 83,000 compounds went through this panel and 20% of them were active in at least one assay; those are over-represented in the sample as a whole.
// reported growth per item
Express your answer in %, writing the number without its unit.

Solved entries (count: 2):
CC(C)(C)c1cc(C(=O)Nc2ccc(C(=O)NCCN)cc2)cc(C(C)(C)C)c1 | 33.6
Cc1ccc(-c2cc(-c3ccc(C)cc3)nc(N3CCN(CCNc4ccnc5cc(Cl)ccc45)CC3)n2)cc1 | 38.7

// below: growth requested for another compound
-- ask Tell me the measured growth of CCCCCC1CCCCN1C(=O)OCCCC (stereo not drawn) , please.
-- reply 105

====

tested on: UACC-62 melanoma; test: NCI-60 one-dose screen, 48 h; conditions: 10 µM unless noted
About 83,000 compounds went through this panel and 20% of them were active in at least one assay; those are over-represented in the sample as a whole. Calls of active or inactive are those of the source. How the source made its calls: active means growth percent below 10; inactive means the rest.
The reply should name one outcome from T (active), F (inactive)

Cc1ccc(N)c(O)c1 | F
CCOC(=O)c1nn(C2CCCCO2)c2ccc(NC(=O)CN3CCCC3)cc12 (stereo unspecified) | F
C=C(C)[C@@H]1CC[C@]2(C(N)=O)CC[C@]3(C)[C@H](CC[C@@H]4[C@@]5(C)C/C(=C/c6cccnc6)[C@H](O)C(C)(C)[C@@H]5CC[C@]43C)[C@@H]12 | F
CCN(CC)CCCNCc1cc(-c2ccccc2)nc2ccccc12 | F
CSc1nc(N)c(N=Nc2ccc(S(=O)(=O)Nc3nnc(C)s3)cc2)c(=O)[nH]1 | F

-- ask Could you kindly confirm the outcome this assay logged for `CCCOc1ccc(-c2nc(-c3ccc(N)cc3)cs2)cc1` ?
-- reply F

-- ask Another: `O=C(CCN1CCCCC1)c1ccc2ccccc2c1`
-- reply F

====

test system: SNB-19 CNS; test: NCI-60 one-dose screen, 48 h; details: 10 µM unless noted
The panel holds about 83,000 compounds, 20% with a hit somewhere; the sample as a whole holds those more often. Activity calls are given as the source filed them. The calls were made as follows: active = growth percent below 10; inactive = the rest.
Outcomes you can answer with include only these: label 1 for active, label 0 for inactive

Examples with answers:
O=C(N/N=C/c1ccc([N+](=O)[O-])cc1)c1ccc(Br)o1 | label 0
CC1(C)CC[C@]2(C(=O)O)CC[C@]3(C)C(=CC[C@@H]4[C@@]5(C)C/C(=C/c6ccco6)C(=O)C(C)(C)[C@@H]5CC[C@]43C)[C@@H]2C1 | label 1
Cn1cc(-c2noc(-c3cn(C)c4ncc(F)cc34)n2)c2cc(Br)ccc21 | label 0
CCN(CC)CCCC(C)Nc1c2ccc(C)cc2nc2ccc(OC)cc12 (configuration not stated) | label 0
Cc1cc2c(C(C)C)c(O)c(O)c(C=NCc3ccoc3)c2c(O)c1-c1c(C)cc2c(C(C)C)c(O)c(O)c(C=NCc3ccco3)c2c1O | label 0

-- ask For this compound, state the assay outcome: `CCc1ccc(NC(=O)N[C@@H](Cc2cc(F)cc(F)c2)C(=O)N[C@@H]2C(=O)N3C[C@H](O)C[C@H]3C(=O)N3CCOC[C@H]3C(=O)N[C@@H](C)C(=O)N3C[C@H](C)C[C@H]3C(=O)O[C@H]2C)cc1`
-- reply label 0

-- ask And the next one, `Cc1ccc2c(c1)/C(=N\N=C/c1cn(C(C)C)c3ccccc13)C(=O)N2` ?
-- reply label 0

====

system: HOP-62 NSCLC; assay: NCI-60 one-dose screen, 48 h (100 = growth as untreated, 0 = no growth, -100 = all killed); conditions: 10 µM unless noted
The panel holds about 83,000 compounds, 20% with a hit somewhere; the sample as a whole holds those more often.
testReadout: growth (%)
Just the number in %, nothing appended.

c1nc(N2CCOCC2)c2[nH]ccc2n1 | 114
COc1cc2c(cc1OC(C)=O)C(=O)CCCC2 | 75.4

-- ask Need growth, item `CCC(Br)(CC)C(=O)c1ccc(OCC(=O)O)c(Cl)c1Cl`
-- reply 119
